Target: Nuclear receptor subfamily 1 group I member 2 (Homo sapiens) (UniProt O75469)
Sequence (O75469 whole entry, looked up): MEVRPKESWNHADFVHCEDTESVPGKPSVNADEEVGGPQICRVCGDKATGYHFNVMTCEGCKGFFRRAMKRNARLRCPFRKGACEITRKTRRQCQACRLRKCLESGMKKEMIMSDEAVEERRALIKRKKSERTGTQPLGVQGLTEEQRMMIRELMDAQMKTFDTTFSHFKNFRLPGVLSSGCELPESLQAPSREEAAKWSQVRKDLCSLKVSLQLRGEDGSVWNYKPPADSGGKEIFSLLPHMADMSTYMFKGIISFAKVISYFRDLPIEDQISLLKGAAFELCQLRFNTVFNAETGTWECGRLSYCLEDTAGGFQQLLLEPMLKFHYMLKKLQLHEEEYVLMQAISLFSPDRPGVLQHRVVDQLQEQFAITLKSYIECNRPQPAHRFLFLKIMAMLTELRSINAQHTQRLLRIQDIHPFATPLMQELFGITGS
Test: Human pregnane X receptor (PXR) small molecule agonists, qHTS assay (AID 1346982); note: nearly all actives have a fitted effect of over 35% in size
Settings: PXR-Luc HepG2, CYP3A4 luciferase reporter, 24 h; series mostly up to 92.4 µM
Results filed as inconclusive are left out. Active and inactive are the calls of the source. Calls come from the whole dose curve; as a rule, active = well fitted activation curve with a large enough effect in the repeat runs; inconclusive = weak or mixed curves; inactive = no such curve, though single readings can be large or run the other way.
Classes used: active, inactive

- CN1C(=O)CN=C(c2ccccc2)c2cc([N+](=O)[O-])ccc21: inactive
- N#CC(C#N)=C(C#N)C#N: inactive
- Cc1nc2ccccc2c(=O)n1-c1ccccc1Cl: active
- CCC(C)(C)O: inactive
- OCCCl: inactive
- C[N+]1(CCF)[C@@H]2CC[C@H]1CC(OC(=O)C(O)(c1ccccc1)c1ccccc1)C2 (some centres not stated): inactive
- CC(C)(C)NCC(O)c1cc(Cl)c(N)c(C(F)(F)F)c1 (configuration not stated): inactive
- C=CCc1ccccc1O: inactive
- Clc1ccccc1: active
- CCCCCl: inactive
- COC1=CC(=O)O[C@@H](/C=C/c2ccc3c(c2)OCO3)C1: inactive
- CCCCC(CC)COC(=O)c1c(Br)c(Br)c(Br)c(Br)c1C(=O)OCC(CC)CCCC (configuration not stated): active
- CN(C1CCCCC1)C1CCCCC1: inactive
- COc1cc(C[C@@H](C)N)c(OC)cc1Br: inactive
- O=C(Cl)OCCOCCOC(=O)Cl: inactive
- CN1CC[C@]23c4c5ccc(O)c4O[C@H]2[C@@H](O)C=C[C@H]3[C@H]1C5: inactive
- C[C@H](N)[C@H](O)c1ccc(O)c(O)c1: inactive
- CCCC1CCCCN1 (configuration not stated): inactive
- O=S(=O)(c1ccccc1)c1ccccc1: inactive
- CCC(=O)O[C@@H]1C=C2CCC3C(CCC4(C)C3CC[C@@H]4OC(=O)CC)C2CC1 (some centres not stated): inactive
- Nc1ccc2c(c1)Cc1ccccc1-2: active
- COC1CC(=C(c2cccs2)c2cccs2)C[N+](C)(C)C1 (configuration not stated): inactive
- CCc1cnc(C2=NC(C)(C(C)C)C(=O)N2)c(C(=O)O)c1 (configuration not stated): inactive
- Nc1cc(Cl)cc(C(=O)O)c1Cl: inactive
- CC(C)c1ccc(NC(=O)N(C)C)cc1: active
- SCc1ccccc1: inactive
- CCOP(=S)(OCC)Oc1ccc(S(C)=O)cc1 (configuration not stated): active
- OC[P+](CO)(CO)CO: active
- COc1ccc(C(O)(c2cncnc2)C2CC2)cc1 (configuration not stated): inactive
- FC(F)OC(F)(F)C(F)Cl (configuration not stated): inactive
- CCOC(=O)NC(O)C(Cl)(Cl)Cl (configuration not stated): inactive
- CCC[N+](CCC)(CCC)CCC: inactive
- N#CC(C#N)=Cc1ccc(O)c(O)c1: inactive
- CC(C)CCON=O: inactive
- CCC1(C2=NCCN2)Cc2ccccc2O1 (configuration not stated): inactive
- FC(Cl)(Cl)C(F)(Cl)Cl: inactive
- C=CCOC(=O)C(C)(C)OC(=O)c1cc(-n2c(=O)cc(C(F)(F)F)n(C)c2=O)ccc1Cl: active
- O=C([O-])c1ccccn1.O=C([O-])c1ccccn1.O=C([O-])c1ccccn1.[Cr+3]: inactive
- NCCc1cc(O)c(O)cc1O: inactive
- C=CC(=O)OCC: inactive
- NNCCO: inactive
- O=C(O)COc1cc(Cl)c(Cl)cc1Cl: inactive
- CCOc1cccc(C2(N3CCN(c4ccccc4)CC3)CCC(C)CC2)c1 (configuration not stated): inactive
- CN1CC[C@]23c4c5ccc(O)c4O[C@H]2[C@@H](O)CC[C@H]3[C@H]1C5: inactive
- CCOC(=O)C1OC1(C)c1ccccc1 (configuration not stated): inactive
- CCCCC#N: inactive
- C[N+](C)(C)CC1CO1 (configuration not stated): inactive
- CCSCc1ccccc1OC(=O)NC: inactive
- CCC1(CCC(C)C)C(=O)NC(=O)NC1=O: inactive
- CC(CC(C(N)=O)(c1ccccc1)c1ccccc1)N(C)C (configuration not stated): inactive
- Cc1nnc(-c2ccccc2)c(=O)n1N: inactive
- COCc1cnc(C2=NC(C)(C(C)C)C(=O)N2)c(C(=O)O)c1 (configuration not stated): inactive
- CC(C)C1(C)N=C(c2ncccc2C(=O)O)NC1=O (configuration not stated): inactive
- O=C(N/N=C/c1ccc([N+](=O)[O-])o1)c1cc([N+](=O)[O-])cc([N+](=O)[O-])c1O: inactive
- O=CC=O: inactive
- OCCSSCCO: inactive
- COP(=O)(OC)OC(Br)C(Cl)(Cl)Br (configuration not stated): active

----------
Assay: qHTS RealTime-Glo MT Cell Viability Assay in HEK293 cells - 24 hour (AID 1224886); note: nearly all actives have a fitted effect of over 50% in size
Settings: RealTime-Glo luminescence; series mostly up to 76.8 µM
Results filed as inconclusive are left out. The source made the active and inactive calls. Calls come from the whole dose curve; as a rule, active = well fitted cell-killing curve with a large enough effect in the repeat runs; inconclusive = weak or mixed curves, or effect the other way; inactive = flat fitted curve, though single readings scatter.
Outcomes: T for active, F for inactive

- Nc1cc(Cl)cc(C(=O)O)c1Cl: F
- CCOC(=O)c1cn2nc(OP(=S)(OCC)OCC)cc2nc1C: T
- CCCCC#N: F
- CCCCCCCCCCCCCCCl: F
- C=C(C)C(=O)OCCCCOC(=O)C(=C)C: F
- C=CC(=O)NC(C)(C)CC(C)=O: F
- CCCCCl: F
- Nc1cccc2ccccc12: F
- CN1CC[C@]23c4c5ccc(O)c4O[C@H]2[C@@H](O)CC[C@H]3[C@H]1C5: F
- N#CC1(N=NC2(C#N)CCCCC2)CCCCC1: F
- C[N+](C)(C)CC1CO1 (stereo unspecified): F
- CC(=O)OC(c1ccccc1)C(Cl)(Cl)Cl (stereo unspecified): F
- CC(C)c1ccc(NC(=O)N(C)C)cc1: F
- CCCCCCCCCCCCN(C)C: F
- O=CC=O: F
- C1CS1: F

----------
Assay: qHTS assay to identify small molecule antagonists of the peroxisome proliferator-activated receptor delta (PPARd) signaling pathway - cell viability counter screen (AID 743213); note: nearly all actives have a fitted effect of over 50% in size
Conditions: PPARd-bla HEK293H viability, CellTiter-Glo luminescence, 17 h; series mostly up to 62 µM
Records with an inconclusive call do not appear. Activity calls are given as the source filed them. The call rests on the fitted dose curve; in most records, active means well fitted cell-killing curve with a large enough effect in the repeat runs; inconclusive means weak or mixed curves; inactive means no such curve, though single readings can be large or run the other way.
Outcome codes: class 1 = active, class 0 = inactive

* CCCC[N+]1(C)[C@@H]2CC(OC(=O)[C@H](CO)c3ccccc3)C[C@H]1[C@@H]1O[C@@H]12 (stereo not given in full) | class 0
* C[N+](C)(C)CC1CO1 (stereo not given) | class 0
* CCOC(=O)C1OC1(C)c1ccccc1 (stereo not given) | class 0
* Clc1ccc(Cl)c(Cl)c1 | class 0
* Cc1nc(N(C)C)nc(OC(=O)N(C)C)c1C | class 0
* CCCCCCCCCCCCCCCl | class 0
* Nc1ccccc1C(=O)OCC(O)CO (stereo not given) | class 0
* O=C(O)COc1cc(Cl)c(Cl)cc1Cl | class 0
* C=CCc1ccccc1O | class 0
* O=CC=O | class 0
* CC[N+]1(C)CCCC(OC(=O)C(O)(c2ccccc2)c2ccccc2)C1 (stereo not given) | class 0
* C=C(Cl)Cl | class 0
* C=C(C)C(=O)OCCCCOC(=O)C(=C)C | class 0
* Nc1c(Br)cc(Br)c2c1C(=O)c1ccccc1C2=O | class 0
* O=C1CC[C@@]2(O)[C@H]3Cc4ccc(O)c5c4[C@@]2(CCN3CC2CC2)[C@H]1O5 | class 0
* C=CCc1ccc(OC(=O)Cc2ccccc2)c(OC)c1 | class 0
* O=C(Cc1ccccc1)OCCc1ccccc1 | class 0
* COCc1cnc(C2=NC(C)(C(C)C)C(=O)N2)c(C(=O)O)c1 (stereo not given) | class 0
* Cc1ccccc1 | class 0
* C=CC(=O)NC(C)(C)CC(C)=O | class 0
* C[Si](Cn1cncn1)(c1ccc(F)cc1)c1ccc(F)cc1 | class 1
* CCNC(=O)NC(=O)/C(C#N)=N/OC | class 0
* c1ccc2sc(SNC3CCCCC3)nc2c1 | class 0
* CC(C)(c1ccccc1)c1cc(-n2nc3ccccc3n2)c(O)c(C(C)(C)c2ccccc2)c1 | class 0
* CC(Oc1cccc(Cl)c1)C(=O)O (stereo not given) | class 0
* c1ccc2c(c1)-c1cccc3cccc-2c13 | class 0
* CCOP(=O)(O)C(N)=O | class 0
* C[C@]12CC[C@H]3[C@@H](CCC4=CC(=O)CC[C@@H]43)[C@@H]1CC[C@@H]2OC(=O)CCc1ccccc1 | class 0
* c1ccc2c(c1)sc1ccccc12 | class 0
* CCC1(CCC(C)C)C(=O)NC(=O)NC1=O | class 0
* CCOC(=O)NC(O)C(Cl)(Cl)Cl (stereo not given) | class 0
* CCOC(C(=O)OCCN(C)C)(c1ccccc1)c1ccccc1 | class 0
* O=[N+]([O-])O[C@H]1CO[C@H]2[C@@H]1OC[C@H]2O[N+](=O)[O-] | class 0
* CC(Cc1ccccc1)NCc1ccccc1Cl (stereo not given) | class 0
* O=C(Cc1ccccc1)c1ccccc1 | class 0
* O=C(NCNC(=O)NC1C(=O)NC(=O)N1CO)NC1C(=O)NC(=O)N1CO (stereo not given) | class 0
* CCCCCl | class 0
* CCC1(CC)C(=O)NC(=O)NC1=O | class 0
* COC(=O)Cc1ccccc1 | class 0
* CCCC[N+](CCCC)(CCCC)CCCC | class 0
* CCOP(=S)(S)OCC | class 0
* C[C@@H]1C[C@@H]([C@H](O)CC2CC(=O)NC(=O)C2)C(=O)[C@@H](C)C1 | class 0
* O=C(O)C(F)(F)C(F)(F)C(F)(F)C(F)(F)C(F)(F)C(F)(F)C(F)(F)C(F)(F)F | class 0
* O=C(O)C(O)C(O)C(=O)O (stereo not given) | class 0
* CC(C)c1ccc(NC(=O)N(C)C)cc1 | class 0
* NCCc1cc(O)c(O)cc1O | class 0
* C=CCSSCC=C | class 0
* C#C[C@]1(O)CC[C@H]2[C@@H]3CCC4=CC(=O)CCC4=C3C=C[C@@]21CC | class 0
* CCCN(CCOc1c(Cl)cc(Cl)cc1Cl)C(=O)n1ccnc1 | class 0
* CCC(=O)O[C@@H]1C=C2CCC3C(CCC4(C)C3CC[C@@H]4OC(=O)CC)C2CC1 (stereo not given in full) | class 0
* CC(C)(C)c1ccc(CCOc2ncnc3ccccc23)cc1 | class 0
* O=C(O)CCCOc1ccc(Cl)cc1Cl | class 0
* CCC(C)(C)O | class 0
* O=C([O-])c1ccccn1.O=C([O-])c1ccccn1.O=C([O-])c1ccccn1.[Cr+3] | class 0
* OCC1CO1 (stereo not given) | class 0
